Sourced from patent US20170145113A1

molecular target: T1, His-tagged human HtrA1 protease domain (human, UniProt Q92743 161-367); test: BIACORE SPR, single-cycle kinetics; Fab analyte over captured human HtrA1
T1 construct: His-tagged protease domain; also called huHtrA1-PD-His; huHtrA1-PD
T1 sequence (Q92743 other isoform, or with tags, fused parts or gaps limits assumed): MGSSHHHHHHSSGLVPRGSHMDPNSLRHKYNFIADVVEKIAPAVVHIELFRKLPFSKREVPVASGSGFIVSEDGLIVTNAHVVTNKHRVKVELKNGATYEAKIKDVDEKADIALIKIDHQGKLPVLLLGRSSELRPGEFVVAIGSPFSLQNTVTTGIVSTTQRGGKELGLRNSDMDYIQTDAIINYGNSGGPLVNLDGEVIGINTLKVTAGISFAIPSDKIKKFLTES
The entries below are paired with their reported kon.

{"binder": "h15H6.v2 LC-N94E LC-P95 Fab (Fab, V domains shown, Produced as Fab; also called EP) VH: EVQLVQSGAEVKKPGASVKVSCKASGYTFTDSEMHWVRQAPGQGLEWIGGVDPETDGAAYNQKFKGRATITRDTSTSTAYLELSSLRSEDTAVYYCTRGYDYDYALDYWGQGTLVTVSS VL: DIQMTQSPSSLSASVGDRVTITCRASSSVNFIHWYQQKPGKAPKPLISATSNLASGVPSRFSGSGSGTDFTLTISSLQPEDFATYYCQQWSSEPWTFGQGTKVEIK", "kon [M⁻¹ s⁻¹]": 520000}
{"binder": "h15H6.v2 Fab (Fab, V domains shown, Tested as Fab; also called parent; parental Fab) VH: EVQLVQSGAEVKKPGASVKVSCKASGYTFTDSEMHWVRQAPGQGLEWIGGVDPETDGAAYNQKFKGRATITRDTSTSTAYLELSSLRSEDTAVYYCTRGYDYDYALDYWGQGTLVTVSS VL: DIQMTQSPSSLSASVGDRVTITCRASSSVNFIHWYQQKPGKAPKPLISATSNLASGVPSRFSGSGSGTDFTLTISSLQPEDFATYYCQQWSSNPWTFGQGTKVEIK", "kon [M⁻¹ s⁻¹]": 630000}
